Values compiled from paper PMC11642016.

tested on: PANC-1 cells; assay: CellTiter-Glo luminescent cell viability assay, PANC-1; settings: Homo sapiens, PANC-1, 72 h, read-out: Cell Viability (% of Control) 25 µM, PANC-1; 25 µM; 72 h; second-set screening; mean ± SD, n = 2
# key: entry, value: viability at 25 µM
# number only, unit % dropped from output

# count of solved cases: 3
{"compound": "CNCC#Cc1cccc(CN2C(=O)C3=C(CCN(Cc4ccc(-n5cc(-c6ccccc6)nn5)cc4)C3)N3CCN=C23)c1 [38b]", "valueReported": 0}
{"compound": "NCC#Cc1cccc(CN2C(=O)C3=C(CCN(Cc4ccc(-n5cc(-c6cccc(F)c6)nn5)cc4)C3)N3CCN=C23)c1 [36a]", "valueReported": 0}
{"compound": "NCC#Cc1ccc(CN2C(=O)C3=C(CCN(Cc4ccc(-n5cc(-c6ccccc6)nn5)cc4)C3)N3CCN=C23)cc1 [I/B, reference compound]", "valueReported": 0}

Item NCC#Cc1cccc(CN2C(=O)C3=C(CCN(Cc4ccc(C(=O)Nc5ccccc5)cc4)C3)N3CCN=C23)c1 [33b] has what recorded viability at 25 µM?
71

====

assay: in vitro; details: human, fibroblast viability in the tested concentration range, dose–response range 26–0.7 µM
attributeMeasured: viability at 72 h

Item Cc1ccccc1CN1C(=O)C2=C(CCN(Cc3ccccc3)C2)N2CCN=C12 [ONC201, reference compound] has what recorded viability at 72 h?
> 50%

====

# key: entry, value: viability at 25 µM
system: PANC-1 cells; experiment: CellTiter-Glo luminescent cell viability assay, PANC-1; settings: Homo sapiens, PANC-1, 72 h, read-out: Cell Viability (% of Control) 25 µM, PANC-1; 25 µM; 72 h; second-set screening; mean ± SD, n = 2
# number only, unit % dropped from output

# count of solved cases: 6
{"compound": "NCC#Cc1cccc(CN2C(=O)C3=C(CCN(Cc4ccc(NC(=O)c5ccccc5)cc4)C3)N3CCN=C23)c1 [23b]", "targetSystem": "PANC-1 cells", "unitsLabel": "%", "valueReported": 47}
{"compound": "CN1CCN(CC#Cc2cccc(CN3C(=O)C4=C(CCN(Cc5ccc(-n6cc(-c7ccccc7)nn6)cc5)C4)N4CCN=C34)c2)CC1 [41b]", "targetSystem": "PANC-1 cells", "unitsLabel": "%", "valueReported": 0}
{"compound": "CN(C)CC#Cc1cccc(CN2C(=O)C3=C(CCN(Cc4ccc(-n5cc(-c6ccccc6)nn5)cc4)C3)N3CCN=C23)c1 [39b]", "targetSystem": "PANC-1 cells", "unitsLabel": "%", "valueReported": 2}
{"compound": "O=C1C2=C(CCN(Cc3ccc(-n4cc(-c5ccccc5)nn4)cc3)C2)N2CCN=C2N1Cc1cccc(C#CCN2CCOCC2)c1 [42b]", "targetSystem": "PANC-1 cells", "unitsLabel": "%", "valueReported": 59}
{"compound": "NCC#Cc1cccc(CN2C(=O)C3=C(CCN(Cc4ccc(-n5cc(-c6cc(F)cc(F)c6)nn5)cc4)C3)N3CCN=C23)c1 [36c]", "targetSystem": "PANC-1 cells", "unitsLabel": "%", "valueReported": 0}
{"compound": "O=C1C2=C(CCN(Cc3ccc(-n4cc(-c5ccccc5)nn4)cc3)C2)N2CCN=C2N1Cc1cccc(C#CCN2CCCCC2)c1 [40b]", "targetSystem": "PANC-1 cells", "unitsLabel": "%", "valueReported": 1}

Query viability at 25 µM on PANC-1 cells for NCc1cccc(CN2C(=O)C3=C(CCN(Cc4ccc(-n5cc(-c6ccccc6)nn5)cc4)C3)N3CCN=C23)c1 [37b]
5

====

assay: CellTiter-Glo luminescent cell viability assay, primary fibroblasts; conditions: human, primary skin fibroblasts (non-tumorous), Primer fibroblast Cell viability (% of controll), 2.3 μM; 72 h; dose–response, individual replicates
# key: entry, value: viability at 72 h, 2.3 µM
# number only, unit % dropped from output

{"compound": "CNCC#Cc1cccc(CN2C(=O)C3=C(CCN(Cc4ccc(-n5cc(-c6cccc(F)c6)nn5)cc4)C3)N3CCN=C23)c1 [43a]", "unitsLabel": "%", "viability at 72 h, 2.3 µM": 111}
{"compound": "CNCC#Cc1cccc(CN2C(=O)C3=C(CCN(Cc4ccc(-n5cc(-c6ccc(F)cc6)nn5)cc4)C3)N3CCN=C23)c1 [43b]", "unitsLabel": "%", "viability at 72 h, 2.3 µM": 105}
{"compound": "CNCC#Cc1cccc(CN2C(=O)C3=C(CCN(Cc4ccc(-n5cc(-c6ccccc6)nn5)cc4)C3)N3CCN=C23)c1 [38b]", "unitsLabel": "%", "viability at 72 h, 2.3 µM": 116}
{"compound": "CNCC#Cc1cccc(CN2C(=O)C3=C(CCN(Cc4ccc(-n5cc(-c6cc(F)cc(F)c6)nn5)cc4)C3)N3CCN=C23)c1 [43c]", "unitsLabel": "%", "viability at 72 h, 2.3 µM": 103}

// next item, viability at 72 h, 2.3 µM requested
Item NCC#Cc1ccc(CN2C(=O)C3=C(CCN(Cc4ccc(-n5cc(-c6ccccc6)nn5)cc4)C3)N3CCN=C23)cc1 [I/B, reference compound] has what recorded viability at 72 h, 2.3 µM?
100

====

system: PANC-1 cells; experiment: CellTiter-Glo luminescent cell viability assay, PANC-1; settings: 17.3 μM; 72 h; dose–response, individual replicates
attributeMeasured: PANC-1 Cell viability (% of controll)

{"compound": "CNCC#Cc1cccc(CN2C(=O)C3=C(CCN(Cc4ccc(-n5cc(-c6ccccc6)nn5)cc4)C3)N3CCN=C23)c1 [38b]", "PANC-1 Cell viability (% of controll)": "0 % of controll"}
{"compound": "CNCC#Cc1cccc(CN2C(=O)C3=C(CCN(Cc4ccc(-n5cc(-c6cccc(F)c6)nn5)cc4)C3)N3CCN=C23)c1 [43a]", "PANC-1 Cell viability (% of controll)": "0 % of controll"}

// next item, PANC-1 Cell viability (% of controll) requested
Item CNCC#Cc1cccc(CN2C(=O)C3=C(CCN(Cc4ccc(-n5cc(-c6ccc(F)cc6)nn5)cc4)C3)N3CCN=C23)c1 [43b] has what recorded PANC-1 Cell viability (% of controll)?
0 % of controll

====

system: Fadu cells; assay: CellTiter-Glo luminescent cell viability assay, Fadu; details: Fadu; 8.3 µM; 72 h; first-set screening; mean ± SD, n = 2
attributeMeasured: Cell Viability (% of Control) 8.3 µM

Item NCC#Cc1ccc(CN2C(=O)C3=C(CCN(Cc4cccc(-n5cc(-[c-]6cccc6)nn5)c4)C3)N3CCN=C23)cc1.[Fe+2].c1cc[cH-]c1 [3a] has what recorded Cell Viability (% of Control) 8.3 µM?
100 ± 6 % of Control

Item NCC#Cc1cccc(CN2C(=O)C3=C(CCN(Cc4cccc(-n5cc(-[c-]6cccc6)nn5)c4)C3)N3CCN=C23)c1.[Fe+2].c1cc[cH-]c1 [4a] has what recorded Cell Viability (% of Control) 8.3 µM?
77 ± 3 % of Control

Item O=C1C2=C(CCN(Cc3ccc(-n4cc(-[c-]5cccc5)nn4)cc3)C2)N2CCN=C2N1Cc1ccc(C#CCO)cc1.[Fe+2].c1cc[cH-]c1 [1b] has what recorded Cell Viability (% of Control) 8.3 µM?
83 ± 0 % of Control

====

assay: CellTiter-Glo cell viability assay, HEK293T CLPP−/− (ClpP dependence); settings: human, HEK293T CLPP−/− cells, HEK293T CLPP-/- Cell viability (% of controll), 6.4 μM; 72 h; dose–response, individual replicates;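 further: CellTiter-Glo luminescent signal read on a microplate reader once HEK293T CLPP−/− cells had been exposed to compounds for 72 h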
attributeMeasured: viability at 72 h, 6.4 µM (%)
# number only, unit % dropped from output

Item CNCC#Cc1cccc(CN2C(=O)C3=C(CCN(Cc4ccc(-n5cc(-c6ccccc6)nn5)cc4)C3)N3CCN=C23)c1 [38b] has what recorded viability at 72 h, 6.4 µM?
0

====

tested on: Fadu cells; assay: CellTiter-Glo luminescent cell viability assay, Fadu; details: Fadu; 25 µM; 72 h; first-set screening; mean ± SD, n = 2
# key: entry, value: Cell Viability (% of Control) 25 µM

{"compound": "NCC#Cc1ccc(CN2C(=O)C3=C(CCN(Cc4cccc(-n5cc(-[c-]6cccc6)nn5)c4)C3)N3CCN=C23)cc1.[Fe+2].c1cc[cH-]c1", "targetSystem": "Fadu cells", "Cell Viability (% of Control) 25 µM": "0 ± 0 % of Control"}

Item NCC#Cc1ccc(CN2C(=O)C3=C(CCN(Cc4ccc(-n5cc(-[c-]6cccc6)nn5)cc4)C3)N3CCN=C23)cc1.[Fe+2].c1cc[cH-]c1 [I/A, reference compound] has what recorded Cell Viability (% of Control) 25 µM?
0 ± 0 % of Control

Item `O=C1C2=C(CCN(Cc3cccc(-n4cc(-[c-]5cccc5)nn4)c3)C2)N2CCN=C2N1Cc1ccc(C#CCO)cc1.[Fe+2].c1cc[cH-]c1` has what recorded Cell Viability (% of Control) 25 µM?
85 ± 5 % of Control

Item `NCC#Cc1cccc(CN2C(=O)C3=C(CCN(Cc4ccc(-n5cc(-[c-]6cccc6)nn5)cc4)C3)N3CCN=C23)c1.[Fe+2].c1cc[cH-]c1` has what recorded Cell Viability (% of Control) 25 µM?
0 ± 0 % of Control

Item `NCC#Cc1cccc(CN2C(=O)C3=C(CCN(Cc4cccc(-n5cc(-[c-]6cccc6)nn5)c4)C3)N3CCN=C23)c1.[Fe+2].c1cc[cH-]c1` has what recorded Cell Viability (% of Control) 25 µM?
0 ± 0 % of Control

Item `O=C1C2=C(CCN(Cc3ccc(-n4cc(-[c-]5cccc5)nn4)cc3)C2)N2CCN=C2N1Cc1ccc(C#CCO)cc1.[Fe+2].c1cc[cH-]c1` has what recorded Cell Viability (% of Control) 25 µM?
68 ± 3 % of Control

Item `O=C1C2=C(CCN(Cc3ccc(-n4cc(-[c-]5cccc5)nn4)cc3)C2)N2CCN=C2N1Cc1cccc(C#CCO)c1.[Fe+2].c1cc[cH-]c1` has what recorded Cell Viability (% of Control) 25 µM?
65 ± 0 % of Control
